Attribution: ChEMBL document CHEMBL1153330

result.type: IC50 (µM)
Supply the numeric figure in µM, leaving out any unit text.

Q. Write down the reported IC50 of C[C@H](Cc1cccc(F)c1)Oc1nc(N2CCNC[C@H]2C)ncc1F , test system: Cytochrome P450 3A4 (Homo sapiens, UniProt P08684).
Sequence (P08684 whole entry): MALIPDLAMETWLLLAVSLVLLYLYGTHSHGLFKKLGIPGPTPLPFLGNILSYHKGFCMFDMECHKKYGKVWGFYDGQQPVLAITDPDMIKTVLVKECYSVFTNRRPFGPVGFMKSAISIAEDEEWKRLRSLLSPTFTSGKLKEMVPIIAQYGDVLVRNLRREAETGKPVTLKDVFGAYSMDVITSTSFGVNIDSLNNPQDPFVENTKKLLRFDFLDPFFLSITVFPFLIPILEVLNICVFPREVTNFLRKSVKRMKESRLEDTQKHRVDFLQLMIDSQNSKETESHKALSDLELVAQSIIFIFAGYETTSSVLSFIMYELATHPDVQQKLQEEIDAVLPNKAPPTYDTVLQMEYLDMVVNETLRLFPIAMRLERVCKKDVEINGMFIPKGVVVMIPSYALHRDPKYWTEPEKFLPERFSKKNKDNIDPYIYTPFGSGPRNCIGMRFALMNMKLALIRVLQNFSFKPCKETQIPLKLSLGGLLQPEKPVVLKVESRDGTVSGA
A. 4.9

====

experiment: Metabolic stability in human liver microsomes in presence of CYP1A2 inhibitor furafylline
Assay type: ADME, Microsome
details: with furafylline (CYP1A2 inhibitor), concentration not stated
result.type: half-life (min)
Supply the numeric figure in min, leaving out any unit text.

Q. Value lookup for half-life; key = Clc1cccc(COc2cncc(N3CCNCC3)n2)c1
A. 40

Q. Value lookup for half-life; key = C[C@H](Cc1cccc(F)c1)Oc1nc(N2CCNC[C@H]2C)ncc1F
A. 40

====

experiment: Metabolic stability in human liver microsomes
Type: ADME, Microsome
result.type: half-life (min)
Supply the numeric figure in min, leaving out any unit text.

Q. Value lookup for half-life; key = C[C@H](Cc1cccc(F)c1)Oc1nc(N2CCNC[C@H]2C)ncc1F
A. 20

Q. Value lookup for half-life; key = Clc1cccc(COc2cncc(N3CCNCC3)n2)c1
A. 8

====

experiment: Metabolic stability in aroclor 1254-induced rat liver S9 fraction at 1 uM in presence of NADPH
Format: ADME, subcellular
result.type: half-life at 1 µM (min)
Supply the numeric figure in min, leaving out any unit text.

Q. Value lookup for half-life at 1 µM; key = Clc1cccc(COc2cncc(N3CCNCC3)n2)c1
A. 4

Q. Value lookup for half-life at 1 µM; key = C[C@H](Cc1cccc(F)c1)Oc1nc(N2CCNC[C@H]2C)ncc1F
A. 13

====

Please provide measured half-life for the entries that follow.
experiment: Metabolic stability in human liver microsomes in presence of CYP3A4 inhibitor ketoconazole
Format: ADME, Microsome
details: with ketoconazole (CYP3A4 inhibitor), concentration not stated

Q. Value lookup for half-life; key = C[C@H](Cc1cccc(F)c1)Oc1nc(N2CCNC[C@H]2C)ncc1F
A. > 1.5 h

Q. Value lookup for half-life; key = Clc1cccc(COc2cncc(N3CCNCC3)n2)c1
A. > 1.5 h
